Target: HiBit-BRM fusion protein (Homo sapiens, UniProt P51531)
Construct: expressed in transfected cells
Sequence (P51531 whole entry, the tested form may be a part): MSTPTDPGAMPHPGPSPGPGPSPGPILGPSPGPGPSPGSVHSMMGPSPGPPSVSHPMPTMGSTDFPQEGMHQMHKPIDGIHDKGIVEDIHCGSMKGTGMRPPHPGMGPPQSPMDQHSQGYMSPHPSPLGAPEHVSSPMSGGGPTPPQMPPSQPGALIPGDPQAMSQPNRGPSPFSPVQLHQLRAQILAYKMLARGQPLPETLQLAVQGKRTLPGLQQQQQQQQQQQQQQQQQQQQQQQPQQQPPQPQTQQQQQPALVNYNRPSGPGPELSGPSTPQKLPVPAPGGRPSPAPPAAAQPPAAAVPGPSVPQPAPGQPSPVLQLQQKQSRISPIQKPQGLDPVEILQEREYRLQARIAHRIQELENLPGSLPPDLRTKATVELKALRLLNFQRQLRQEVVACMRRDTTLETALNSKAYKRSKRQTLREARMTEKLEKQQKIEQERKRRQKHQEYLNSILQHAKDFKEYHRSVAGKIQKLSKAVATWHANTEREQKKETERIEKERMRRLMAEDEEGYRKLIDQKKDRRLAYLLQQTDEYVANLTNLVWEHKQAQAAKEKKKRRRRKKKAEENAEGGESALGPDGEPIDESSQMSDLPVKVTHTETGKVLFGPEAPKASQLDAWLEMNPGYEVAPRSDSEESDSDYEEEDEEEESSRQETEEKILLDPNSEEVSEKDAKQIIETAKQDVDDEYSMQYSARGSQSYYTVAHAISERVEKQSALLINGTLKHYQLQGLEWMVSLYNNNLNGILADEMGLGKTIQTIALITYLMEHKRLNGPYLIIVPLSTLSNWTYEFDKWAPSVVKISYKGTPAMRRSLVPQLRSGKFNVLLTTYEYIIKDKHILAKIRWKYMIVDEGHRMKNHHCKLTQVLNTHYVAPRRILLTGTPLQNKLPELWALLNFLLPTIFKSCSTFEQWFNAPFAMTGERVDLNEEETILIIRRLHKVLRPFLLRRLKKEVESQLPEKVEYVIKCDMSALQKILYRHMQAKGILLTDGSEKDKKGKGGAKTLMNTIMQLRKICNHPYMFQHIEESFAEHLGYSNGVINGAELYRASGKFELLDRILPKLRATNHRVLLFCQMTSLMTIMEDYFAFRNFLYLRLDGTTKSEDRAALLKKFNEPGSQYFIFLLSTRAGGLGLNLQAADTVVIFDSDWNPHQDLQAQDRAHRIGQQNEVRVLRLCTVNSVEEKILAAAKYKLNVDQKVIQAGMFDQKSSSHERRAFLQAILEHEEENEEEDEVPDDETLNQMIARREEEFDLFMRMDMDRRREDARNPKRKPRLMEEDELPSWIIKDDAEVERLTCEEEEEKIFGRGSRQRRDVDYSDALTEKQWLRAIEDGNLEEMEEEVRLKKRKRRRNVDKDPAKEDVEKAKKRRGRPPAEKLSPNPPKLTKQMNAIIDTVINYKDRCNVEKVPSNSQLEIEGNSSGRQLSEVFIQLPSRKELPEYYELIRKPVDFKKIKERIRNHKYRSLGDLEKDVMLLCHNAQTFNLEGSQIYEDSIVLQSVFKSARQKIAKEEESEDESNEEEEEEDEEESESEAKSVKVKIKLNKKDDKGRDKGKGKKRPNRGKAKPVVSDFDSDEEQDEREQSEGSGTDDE
Assay: HiBiT-BRM cell-based degradation assay (Nano-Glo HiBiT lytic detection, 24 h)
Details: HeLa cell line expressing HiBiT-BRM, read-out: BRM HiBit Degradation IC50
Quick reference: DC50 of the listed items.

Answered examples (2):
COMPOUND	DC50
CC(C)[C@@H](C(=O)N1C[C@H](O)C[C@H]1C(=O)N[C@@H](C)c1ccc(F)cc1)c1cc(N2CC3(CC(c4cc5nnc(-c6ccccc6O)cc5n4C4CCC4)C3)C2)no1	> 10 nM
Cc1ncsc1-c1ccc([C@H](C)NC(=O)[C@@H]2C[C@@H](O)CN2C(=O)[C@@H](c2cc(-c3cnc(N4CC[C@H](c5cc6nnc(-c7ccccc7O)cc6n5C5CCC5)C4)nc3)no2)C(C)C)cc1	> 10 nM

Record Cc1ncsc1-c1ccc([C@H](C)NC(=O)[C@@H]2C[C@@H](O)CN2C(=O)[C@@H](c2cc(-c3cnc(N4CC5(CC(c6cc7nnc(-c8ccccc8O)cc7n6C67CC(C6)C7)C5)C4)nc3)no2)C(C)C)cc1 . Reported DC50: < 10 nM

Record Cc1ncsc1-c1ccc([C@H](C)NC(=O)[C@@H]2C[C@@H](O)CN2C(=O)[C@@H](c2cc(-c3cnc(N4CC[C@@H](c5cc6nnc(-c7cc(F)cc(Cl)c7O)cc6n5C5CC5)C4)nc3)no2)C(C)C)cc1 . Reported DC50: < 10 nM

Record Cc1ncsc1-c1ccc([C@H](C)NC(=O)[C@@H]2C[C@@H](O)CN2C(=O)[C@@H](c2cc(-c3cnc(N4CCN(c5cc6nnc(-c7ccccc7O)cc6n5C)CC4)nc3)no2)C(C)C)cc1 . Reported DC50: < 10 nM

Record Cc1ncsc1-c1ccc([C@H](C)NC(=O)[C@@H]2C[C@@H](O)CN2C(=O)[C@@H](c2cc(-c3cnc(N4CC[C@@H](c5cc6nnc(-c7cccc(Cl)c7O)cc6n5C5CC5)C4)nc3)no2)C(C)C)cc1 . Reported DC50: < 10 nM

Record C#Cc1ccc([C@H](C)NC(=O)[C@@H]2C[C@@H](O)CN2C(=O)C(c2cc(N3CC4(CC(c5cc6nnc(-c7ccccc7O)cc6n5C5CCC5)C4)C3)no2)C(C)C)c(Cl)c1 (stereo partly shown) . Reported DC50: > 10 nM

Record CNC(=O)[C@@H]1C[C@@H](O)CN1C(=O)[C@@H](c1cc(N2CC3(CC(c4cc5nnc(-c6ccccc6O)cc5n4C4CCC4)C3)C2)no1)C(C)C . Reported DC50: > 10 nM

Record Cc1ncsc1-c1ccc([C@H](C)NC(=O)[C@@H]2C[C@@H](O)CN2C(=O)[C@@H](c2cc(N3CCC(CN4CC(c5cc6nnc(-c7ccccc7O)cc6[nH]5)C4)CC3)no2)C(C)C)cc1 . Reported DC50: > 10 nM

Record Cc1ncsc1-c1ccc([C@H](C)NC(=O)[C@@H]2C[C@@H](O)CN2C(=O)[C@@H](c2cc(OCCN3CC(c4cc5nnc(-c6ccccc6O)cc5n4C)C3)no2)C(C)C)cc1 . Reported DC50: < 10 nM
